Experiment: soluble on expression in E. coli; label from the status in PepcDB or PDB records
value-type: soluble on expression in E. coli

See these solved cases before continuing.
[[record]]
residue_codes = "RTDTIMVLHMPRTGEPTLLSIPRDSYVNVPGWGMDKANAAFTVGGPELLTQTVEEATGLRIDHYAEIGMGGLANMVDAVGGVEMCPAEPMYDPLANLDIQAGCQEFDGAAALGYVRTRATALGDLDRVVRQREFFSALLSTATS"
recorded_measurement = "not soluble"

[[record]]
residue_codes = "MMVEVRFFGPIKEENFFIKANDLKELRAILQEKEGLKEWLGVCAIALNDHLIDNLNTPLKDGDVISLLPPVCGG"
recorded_measurement = "not soluble"

[[record]]
residue_codes = "MNIAELYGKMGKHSWRIMDAIFKNLWDYEYVPLQLISSHARIGEEKARNILKYLSDLRVVQNRQKDYEGSTFTFIGLSLYSLHRLVRSGKVDAIGKLMGEGKESAVFNCYSEKFGECVVKFHKVGHTSFKKVKEKRDYGDLHFSVLAIRSARNEFRALQKLQGLAVPKVYAWEGNAVLMELIDAKELYRVRVENPDEVLDMILEEVAKFYHRGIVHGDLSQYNVLVSEEGIWIIDFPQSVEVGEEGWREILERDVRNIITYFSRTYRTEKDINSAIDRILQE"
recorded_measurement = "soluble"

[[record]]
residue_codes = "MGSDKIHHHHHHLPALPHIPIPVNFEEYCQQKAAPPGSSTYYALRQAPAASQPLLTALFALRREFEETVKETSDPTIGRTKLAWWQNEIAALASDSPSHPVSKALAAYLPDVKTEYPALQTLLAGFEMDLDQARYLDYPNLRRYVQGVGGTFASLVARATAKDAAQASNWSAPLGEALMLAQFVVETGHDARHGRIYIPIDEMQRFNVTAADLINRKYTEAFTELMRFETKRARDALQSALGAVPGSERRTQRTLVAQAALASALLDEIERDGYHVLHQRIALTPIRKLWIAWRAK"
recorded_measurement = "not soluble"

[[record]]
residue_codes = "MISILYDEIVSCSRCERLIEYRKNFKIPPRFKDWNYWNKPVPGFGDEKAKILIVGLAPALHGGNRTGRVFTGDESGKWVIKGLYALGLSNKEEGKTREDGLEVKEVYLTNTVKCAPPKNKPTREEISNCSRFLIEEIKSLRIKVILALGRIAFDTILSLYGIKSKFYHGVVIKLPDDKILIGSYHPSAQNTKTGRLKWEDWIKILKLAYEIANNPQY"
recorded_measurement = "soluble"


Quickly give me recorded soluble on expression in E. coli for `MSNKNYVFEEAKESLSSILFNGDSDRTEAGFFDGSVESWNDEDMIDGAKWVDRLVSEMTKAINIDDMRRRVAVILEALESIIKKNTNASKKLEYASMKESLQSLINDNQILKRVIANQHQRSSENEEKAKQVLHLRGVVGQYQEQVHKLELSNYAMKLHLQRSQQQQTSFSGNLPPDIY` soluble

Quickly give me recorded soluble on expression in E. coli for `MIQRLLNEENLLIGISELSEIAEVSPRQLRYWEEKGYISSIAKDANGPRKYRLHTVVKVHWIKRFLDEGYTLQSAVEKAEEQHRNVGMTKKIFSQMFHGISEVCPNYVAIDLGDFDEEQKLYVVFNETTEVSEYLLIPKDADVSDELKKRK` not soluble

Quickly give me recorded soluble on expression in E. coli for `DRHVDTHSEVLIFEVIPADDFLQQQLQITVQDRVWHVKRVRYRKQKPMALEETWMPLALFPDLTWQVMENSKYHFIEEVKKMVIDRSEQEIIPLMPTEEMSRLLNISQTKPILEKVSRGYLVDGRVFEYSRNAFNTDDYK` not soluble

----------
Assay: soluble on expression in E. coli; label from the status in PepcDB or PDB records
value-type: soluble on expression in E. coli

[[record]]
residue_codes = "MSLIPIVASSPSPLISGDGDDALRQIGLLHERSAPLGAMMIDHGPDIGERSPVFSMTTIDGVPVTVGRAVSPGRPSLLMFTGPSCPICQKLLPIIRSVAATEGADVILISDGTQAEHREFLRNHPLDGEHYVVSAEIGMRYQVSKVPYGVLLDKDGVIQAKGLCNTREHVESLFETTRVGHSTLQNFLKHGVEDASKHEGHHHHHH"
value_type = "soluble on expression in E. coli"
recorded_measurement = "soluble"

[[record]]
residue_codes = "GMMTDEARAKLAAIPMLAGYTGPLERLGGLTNLVFRAGDLCLRIPGKGTEEYINRANEAVAAREAAKAGVSPEVLHVDPATGVMVTRYIAGAQTMSPEKFKTRPGSPARAGEAFRKLHGSGAVFPFRFELFAMIDDYLKVLSTKNVTLPAGYHDVVREAGGVRSALAAHPLPLAACHCDPLCENFLDTGERMWIVDWEYSGMNDPLWDLGDLSVEGKFNANQDEELMRAYFGGEARPAERGRVVIYKAMCDLLWTLWGLIQLANDNPVDDFRAYADGRFARCKALMETPEFSRHLAAVRMG"
value_type = "soluble on expression in E. coli"
recorded_measurement = "soluble"


----------
Test: soluble on expression in E. coli; label from the status in PepcDB or PDB records
value-type: soluble on expression in E. coli

[[record]]
residue_codes = "MGSDKIHHHHHHMSRLSTAPWGPVLKSVPTAAHWSLRPWCLSISLSANSEAMNKMQTEKLITPFAHALQHEHGVWGLIDQMKAVTHFLDEELERDRIRNLGIADASFLRKFGAKGTYAAQWLEAQGVVIPTRPNSWAQAADGSLALRLGNSEFLIEDVPGGTSCDRLAQACAGARGVYPVPHVEASFVISGHAVQALFSEVCSIDLTHASLGAQDVVMTQFAGVSVVLIRQDLKEEESLYRLWCDSSYGSYLWEVIAGIAHEHKGGPVGIGRYFASCP"
value_type = "soluble on expression in E. coli"
recorded_measurement = "not soluble"

[[record]]
residue_codes = "MSNFSEGEIFIANIEKKSLECRENDEIVVLKICELCNIIYPIFNKIFGNGFVGDTLKKDLKNSSSQVQRAIEKFPEETKYVSMLYSYNINKYENMEKLKRDLDNGIISFLWMKRTLEFIITFLEKCYITCSETKLSICAQEAYNEVLKKYHGFITSKIVKLCLKLSPTKDILTKKLGFQTHQQASTVLQKCLSITKPLVRDISVTIEKFNCDFEEKI"
value_type = "soluble on expression in E. coli"
recorded_measurement = "not soluble"


----------
Experiment: soluble on expression in E. coli; label from the status in PepcDB or PDB records
value-type: soluble on expression in E. coli

See these solved cases before continuing.
[[record]]
residue_codes = "MGTTVEGGRSGPRYVQVADEIVQQIRAGVLKPGDMVPSESEMVDRYGVSGGTIRKAMVEVRASGLVETRHGKGSIVKDRPPVRHRSSDRFRRSLRQGGKAAYLAESEQSGATAKVSVLYIGPMEAPADAAQRLGVPAGTQVLARRRLYFRNGTPVETASSYLPWDVVKDIPELFAENPGGGGIYARLEDHGHEFAEFVETLQARPASKAEATELALSPGAPVVHLIREARTAAGLVVEVCDTLMAADQFVFEYRIPAAD"
recorded_measurement = "not soluble"

[[record]]
residue_codes = "MVGRVAQGKEPLHPGPRRQPGGARPGADLGPGGGVNPSPRKRVALFTDGACLGNPGPGGWAALLRFHAHEKLLSGGEACTTNNRMELKAAIEGLKALKEPCEVDLYTDSHYLKKAFTEGWLEGWRKRGWRTAEGKPVKNRDLWEALLLAMAPHRVRFHFVKGHTGHPENERVDREARRQAQSQAKTPCPPRAPTLFHEEA"
recorded_measurement = "soluble"

[[record]]
residue_codes = "GMSKLSLIQQLKQQKLSVGILSANWLQLNEEVTTLLENQINVLHFDIADGQFSSLFTVGAIGIKYFPTHCFKDVHLMVRNQLEVAKAVVANGANLVTLQLEQYHDFALTIEWLAKQKTTYANQVYPVLIGACLCPETPISELEPYLDQIDVIQLLTLDPRNGTKYPSELILDRVIQVEKRLGNRRVEKLINIDGSMTLELAKYFKQGTHQIDWLVSGSALFSGELKTNLKVWKSSIM"
recorded_measurement = "soluble"

[[record]]
residue_codes = "MSRGTQACINAAHTVSGIIGDLDTTIMFATAGTLHSDGDGSFADHREHILQTAKALVEDTKVLVTGAAGTQDQLANAAQNAVSTITQLAEAVKRGACSLGSTQPDSQVMVINAVKDVASALGDLINCTKLASGKSINDPSMQDLKESARVMVLNVSSLLKTVKAVEDEHTRGTRAMEATVEAISQEIRALEHHHHHHHH"
recorded_measurement = "soluble"

[[record]]
residue_codes = "MGVKRKKMGKVAGFTEWTAEDLEAFRARWPIGTAQRLALELYQWTGARCVDVIRLGPQMVGRDGVLTYVQQKTGNPAHVPWTCPAFGLEEQRADLMRCLPVGSPVYMLTEYGKPRTQKGVSQWFSAAAREAGLESRTAHGLRKYRMNALAEHGASVLVMQSWVGHTTLLEVQEYTRRADRRRVISGGHPVKRDPAGAAAALEHHHHHH"
recorded_measurement = "soluble"


Alright, here's another sequence for you.
Quickly give me recorded soluble on expression in E. coli for `MVRLTTELFAERPQFVNSVNMREINLRGQKIPVIENMGVTRDQFDVIDLTDNDIRKLDNFPTFSRLNTLYLHNNRINYIAPDIATKLPNLKTLALTNNNICELGDIEPLAECKKLEYVTFIGNPITHKDNYRMYMIYKLPTVRVIDFNRVRLTEREAAKKMFKGKSGKKARDAIQKSVHTEDPSEIEPNENSSGGGARLTDEDREKIKEAIKNAKSLSEVNYLQSILASGKVPEKGWNRQMDQNGADGEAMES` not soluble
